system: LG0703-F948-PDC complex spheroid viability; test: Anticancer human tumor LG0703-F948-PDC patient-derived lung adenocarcinoma cell line growth inhibition; details: second compound 3.16 µM; first compound 0.0949 µM; hits give low values;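 also: spheroids exposed to agents for seven days before readout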
Labelling: viability, T/C reported below 60% becomes T; at or above becomes F.

{"compound": "Nc1ccccc1NC(=O)c1ccc(CNC(=O)OCc2cccnc2)cc1 + NC1CCC(NC2CC2c2ccccc2)CC1", "label_class": "F"}
{"compound": "Nc1ccn(C2OC(CO)C(O)C2(F)F)c(=O)n1 (stereo not drawn) + NC1CC1c1ccc(-c2cccc(O)c2)cc1", "label_class": "T"}
{"compound": "Nc1ccn(C2OC(CO)C(O)C2(F)F)c(=O)n1 (stereo not drawn) + NC1CCC(NC2CC2c2ccccc2)CC1", "label_class": "T"}
{"compound": "NS(=O)(=O)OCC1CC(n2ccc3c(NC4CCc5ccccc54)ncnc32)CC1O (stereo not drawn) + NC1CC1c1ccc(-c2cccc(O)c2)cc1", "label_class": "F"}
{"compound": "O=C(C=Cc1cccc(S(=O)(=O)Nc2ccccc2)c1)NO + NC1CC1c1ccc(-c2cccc(O)c2)cc1", "label_class": "T"}

[Q] Is it true that viability, T/C reported for Nc1ncn(C2CC(O)C(CO)S2)c(=O)n1 (stereo not drawn) + NC1CC1c1ccc(-c2cccc(O)c2)cc1 is less than 60%?
[A] F

[Q] // query: Nc1ccccc1NC(=O)c1ccc(CNC(=O)OCc2cccnc2)cc1 + NC1CC1c1ccc(-c2cccc(O)c2)cc1
[A] T

[Q] // query: Nc1ncn(C2CC(O)C(CO)S2)c(=O)n1 (stereo not drawn) + NC1CCC(NC2CC2c2ccccc2)CC1
[A] F
